B1: TRIM43 (parent)
chain: NNSWIRKNSTMVNSEDIFLLLCLK

- Variants of: B1
- PROCEDURE_SUMMARY: protein stability index of a GFP-peptide fusion (GPS, HEK-293T) (PSI 1-6); higher = more stable;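 also: lentivirally expressed fusions sorted by FACS into six bins by GFP to DsRed ratio, PSI derived from sequencing read proportions per bin multiplied by bin number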
- CONDITION_DETAILS: c terminus: a fixed tail appended
TEST_READOUT: protein stability index
// keep it numeric: no unit symbol after the value

Specify reported protein stability index for the variant shown: NNSRIRKNSTMVNSEDIFLLLCLK [W4R] 3.35

Specify reported protein stability index for the variant shown: NNSIIRKNSTMVNSEDIFLLLCLK [W4I] 1.99

Specify reported protein stability index for the variant shown: NNSWIRKNETMVNSEDIFLLLCLK [S9E] 2.68

Specify reported protein stability index for the variant shown: NNSWIRRNSTMVNSEDIFLLLCLK [K7R] 4.2

Specify reported protein stability index for the variant shown: NNSWIRKNSTMVNSEDIFLLLYLK [C22Y] 3.36

Specify reported protein stability index for the variant shown: NNSWIRKNSTMVNSEQIFLLLCLK [D16Q] 2.49

Specify reported protein stability index for the variant shown: NNSWIRKNSNMVNSEDIFLLLCLK [T10N] 2.17

Specify reported protein stability index for the variant shown: NNSWIRKNKTMVNSEDIFLLLCLK [S9K] 2.54

Specify reported protein stability index for the variant shown: NNSSIRKNSTMVNSEDIFLLLCLK [W4S] 3.31

Specify reported protein stability index for the variant shown: NNSWIRKYSTMVNSEDIFLLLCLK [N8Y] 3.85
